Just for reference, patent US11739101B2 is where these values come from.

This section presents compounds with their documented Dmax values.
# Measured target: HPK1 (Homo sapiens)
# Construct: A HiBiT tag was introduced by CRISPR on the N terminus of HPK1 in Jurkat cells; host or cells: Jurkat (ATCC TIB-152), monoclonal CRISPR HiBiT knock-in line
# Sequence (Q92918 whole entry): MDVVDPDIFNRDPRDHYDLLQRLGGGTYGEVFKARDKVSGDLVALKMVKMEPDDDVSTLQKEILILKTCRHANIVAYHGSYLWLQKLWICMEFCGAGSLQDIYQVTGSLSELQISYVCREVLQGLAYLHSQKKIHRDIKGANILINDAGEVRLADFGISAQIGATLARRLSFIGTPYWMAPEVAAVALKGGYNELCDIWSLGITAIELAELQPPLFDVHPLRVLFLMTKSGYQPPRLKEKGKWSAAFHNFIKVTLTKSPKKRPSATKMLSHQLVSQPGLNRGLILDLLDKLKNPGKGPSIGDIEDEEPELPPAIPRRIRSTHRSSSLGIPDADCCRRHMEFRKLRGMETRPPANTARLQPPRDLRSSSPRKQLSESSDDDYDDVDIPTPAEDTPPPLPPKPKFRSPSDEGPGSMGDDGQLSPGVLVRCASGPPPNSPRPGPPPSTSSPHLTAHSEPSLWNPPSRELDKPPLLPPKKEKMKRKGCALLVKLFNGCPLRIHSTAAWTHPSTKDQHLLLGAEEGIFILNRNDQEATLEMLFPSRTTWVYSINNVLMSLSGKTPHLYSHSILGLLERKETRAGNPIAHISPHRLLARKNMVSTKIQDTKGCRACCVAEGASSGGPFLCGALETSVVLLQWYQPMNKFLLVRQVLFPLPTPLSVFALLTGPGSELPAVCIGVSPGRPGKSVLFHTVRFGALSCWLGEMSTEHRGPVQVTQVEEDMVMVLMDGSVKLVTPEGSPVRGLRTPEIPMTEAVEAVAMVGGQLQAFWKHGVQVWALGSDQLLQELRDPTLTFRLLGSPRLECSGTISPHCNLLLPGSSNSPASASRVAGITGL
# Test details: HPK1 Cellular HiBiT Degradation Assay
# Format: cell-based
# Particulars: HiBiT-tagged HPK1 Jurkat cells, 24 hours, 10 uM to 0.1 nM; Dmax = 100 minus lowest % HPK1 remaining vs DMSO vehicle
Quantity measured: Dmax

>>> reported("Cc1cc(F)c(Nc2nc(-c3ccc4c(c3)N([C@H]3C[C@@H](N5CCCCC5)C3)C(=O)C43CCN(C(=O)c4ccc(C(=O)N5CCC(c6ccc7c(c6)C(=O)N(C6CCC(=O)NC6=O)C7=O)CC5)cc4)CC3)cc3ncn(C(C)C)c23)cc1C(=O)NC(C)C (stereo partly shown)")
"45 to 65%"
>>> reported("Cc1cc(F)c(Nc2nc(-c3ccc4c(c3)N([C@H]3C[C@@H](N5CCCCC5)C3)C(=O)C43CCN(C(=O)CCOCCOCCOCCOc4cc(-c5scnc5C)ccc4CNC(=O)[C@H]4C[C@H](O)CN4C(=O)[C@H](NC(=O)C4(F)CC4)C(C)(C)C)CC3)cc3ncn(C(C)C)c23)cc1C(=O)NC(C)C")
"< 45%"
>>> reported("Cc1cc(F)c(Nc2nc(-c3ccc4c(c3)N([C@H]3C[C@@H](N5CCCCC5)C3)C(=O)C43CCN(C(=O)C4CN(C(=O)CC5CCN(c6cccc7c6C(=O)N(C6CCC(=O)NC6=O)C7=O)CC5)C4)CC3)cc3ncn(C(C)C)c23)cc1C(=O)NC(C)C (stereo partly shown)")
"< 45%"
>>> reported("Cc1cc(F)c(Nc2nc(-c3ccc4c(c3)N([C@H]3C[C@@H](N5CCCCC5)C3)C(=O)C43CCN(C(=O)C4CCN(C(=O)CN5CC6(CCN(c7ccc8c(c7)C(=O)N(C7CCC(=O)NC7=O)C8=O)CC6)C5)CC4)CC3)cc3ncn(C(C)C)c23)cc1C(=O)NC(C)C (stereo partly shown)")
"45 to 65%"
